Compiled record: pKi values for Cytochrome P450 1B1 (Homo sapiens) across several sources.
pKi: −log10 of the molar value.
Decision: pKi >= 5 yields Condition met, all other cases yield Condition not met.

{"columns": ["SMILES_INPUT", "CATEGORY"],
 "data": [
  ["COc1ccc(-c2cc(=O)c3c(O)c(OC)c(OC)cc3o2)cc1O", "Condition met"],
  ["Cc1cc2c(ccc3c(-c4ccccc4)c(C)c(=O)oc32)o1", "Condition not met"],
  ["Cc1cc2c(cc(O)c3c(=O)cc(-c4ccccc4)oc32)o1", "Condition met"],
  ["Oc1ccc(/C=C/c2cc(O)cc(O)c2)cc1", "Condition met"]
]}
